- MEASUREMENT_TARGET: Fucose-binding lectin PA-IIL (Pseudomonas aeruginosa (strain ATCC 15692 / DSM 22644 / CIP 104116 / JCM14847 / LMG 12228 / 1C / PRS 101 / PAO1))
- Sequence (Q9HYN5 whole entry): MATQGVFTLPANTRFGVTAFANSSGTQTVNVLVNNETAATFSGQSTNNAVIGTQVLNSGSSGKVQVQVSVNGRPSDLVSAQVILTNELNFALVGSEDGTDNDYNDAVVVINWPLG
- EXPERIMENT: Binding affinity to Pseudomonas aeruginosa PAO1 LecB assessed as dissociation constant by isothermal titration calorimetry
In this section, each of the compounds is paired with its reported Kd.
Give your result in nM as a bare value.

CHEMICAL_SMILES	QUANTITY_UNIT	RECORDED_RESULT
Cc1cc(C)c(S(=O)(=O)NC[C@H]2O[C@@H](C)[C@@H](O)[C@@H](O)[C@@H]2O)c(C)c1	nM	1270

Query block: Give the reported value of Kd for this record: `C[C@@H]1O[C@H](CNC(=O)/C=C/c2ccccc2)[C@@H](O)[C@H](O)[C@@H]1O`
Result block: 3090
